What IC50 was measured for each of the following?
Target: IDO1 in IFNγ stimulated HeLa cells (Homo sapiens, UniProt P14902)
Construct: endogenous in cells; host or cells: HeLa cells stimulated with IFNγ
Test: IDO1 inhibition assay in HeLa cells stimulated with IFNγ
Assay type: cell-based
Settings: Table 19; read-out: Inhibition HeLa cells IC50
Numbered stars: 1 amine (or outer) side, 2 acyl side, 3 side chain; on linkers, the order of the positions; unused ones are H or OH. Bridge positions count the residues as written; N and C are the ends. Square brackets hold non-standard residues; d marks the D form. Triazole bridges read from a SMILES are 1,4-linked. Peptide text beside a SMILES is read from it. * marks the point of attachment. NH(CH2CH2O)5CH2CO = O=C(COCCOCCOCCOCCOCCN[*:1])[*:2]; X2 = O=C(CCCCCSc1nonc1/C(=N/O)Nc1ccc(F)c(Br)c1)*; X1 = O=C(CSc1nonc1/C(=N/O)Nc1ccc(F)c(Br)c1)*; Lys(N3) = [N-]=[N+]=NCCCC[C@H](N)C(=O)O; PEG6 = NCCOCCOCCOCCOCCOCCOCCC(=O)O; Pra = C#CC[C@H](N)C(=O)O
One number for each entry, in nM.

molecule	tgt	unit.annotation	IC50
CC(C)[C@H]1NC(=O)[C@@H](Cc2ccc(O)cc2)NC(=O)[C@@H](Cc2c[nH]c3ccccc23)NC(=O)[C@@H](NC(=O)COCCOCCOCCOCCOCCNC(=O)CCCCCSc2nonc2/C(=N/O)Nc2ccc(F)c(Br)c2)Cc2cn(nn2)CCCC[C@@H](C(N)=O)NC(=O)[C@@H](Cc2ccc(O)cc2)NC(=O)[C@@H](C)NC1=O [Inh2-PEG5-wyvay] (X2-[NH(CH2CH2O)5CH2CO][Pra][dW][dY][dV][dA][dY][Lys(N3)]-NH2; triazole 2-8)	IDO1 in IFNγ stimulated HeLa cells (Homo sapiens, UniProt P14902)	nM	221
O=C(O)CCCCCSc1nonc1/C(=N/O)Nc1ccc(F)c(Br)c1 [Inh2]	IDO1 in IFNγ stimulated HeLa cells (Homo sapiens, UniProt P14902)	nM	997
CC(C)[C@H]1NC(=O)[C@@H](Cc2ccc(O)cc2)NC(=O)[C@@H](Cc2c[nH]c3ccccc23)NC(=O)[C@@H](NC(=O)CCOCCOCCOCCOCCOCCOCCNC(=O)CSc2nonc2/C(=N/O)Nc2ccc(F)c(Br)c2)Cc2cn(nn2)CCCC[C@@H](C(N)=O)NC(=O)[C@@H](Cc2ccc(O)cc2)NC(=O)[C@@H](C)NC1=O [Inh-PEG6-wyvay] ({X1-PEG6}-[Pra][dW][dY][dV][dA][dY][Lys(N3)]-NH2; triazole 1-7)	IDO1 in IFNγ stimulated HeLa cells (Homo sapiens, UniProt P14902)	nM	35700

What the record says about O=C(O)CSc1nonc1/C(=N/O)Nc1ccc(F)c(Br)c1 [Inh] : IC50 is 406

* * *

Target: His-tagged IDO1 human recombinant protein (Homo sapiens, UniProt P14902)
Construct: purchased BPS Biosciences 71182
Sequence (P14902 whole entry): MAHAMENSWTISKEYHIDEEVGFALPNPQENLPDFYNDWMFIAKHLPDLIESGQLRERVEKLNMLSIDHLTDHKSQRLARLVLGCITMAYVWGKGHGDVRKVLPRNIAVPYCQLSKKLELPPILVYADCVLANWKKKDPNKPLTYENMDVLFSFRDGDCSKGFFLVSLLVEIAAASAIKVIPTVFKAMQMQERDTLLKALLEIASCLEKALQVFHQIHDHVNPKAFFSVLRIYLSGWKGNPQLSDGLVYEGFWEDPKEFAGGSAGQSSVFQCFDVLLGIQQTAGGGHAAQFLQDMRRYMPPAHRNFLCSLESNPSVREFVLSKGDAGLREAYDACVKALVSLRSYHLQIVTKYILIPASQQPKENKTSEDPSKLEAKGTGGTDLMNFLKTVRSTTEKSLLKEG
Experiment: IDO1 ELISA (Affinity Assay): sandwich ELISA, biotinylated ligand immobilized on NEUTRAVIDIN plate
Format: binding
Details: 2 μM biotinylated macrocycle immobilized; human IDO1 titrated 200 to 0 nM; read-out: EC50, sandwich ELISA for human IDO1 protein against biotin-PEG3-modified macrocycle
Bridge positions count the residues as written; N and C are the ends. Square brackets hold non-standard residues; d marks the D form. Triazole bridges read from a SMILES are 1,4-linked. Peptide text beside a SMILES is read from it. * marks the point of attachment. Biotinyl(3aR,4R,6aS) = O=C1N[C@@H]2[C@@H](CS[C@@H]2CCCCC(=O)*)N1; dTrp(1-Me) = Cn1cc(C[C@@H](N)C(=O)O)c2ccccc21; Lys(N3) = [N-]=[N+]=NCCCC[C@H](N)C(=O)O; Phe(4-F) = N[C@@H](Cc1ccc(F)cc1)C(=O)O; dPhe(4-F) = N[C@H](Cc1ccc(F)cc1)C(=O)O; X4 = O=C1NC2CS[C@@H](CCCCC(=O)*)C2N1; AEEEA = NCCOCCOCCOCC(=O)O; Pra = C#CC[C@H](N)C(=O)O
measured.property: pEC50
Answers are plain numbers, as −log10 of the molar value.

compound	tgt	measured.property	experimental.value
CC(C)C[C@H]1NC(=O)[C@@H](CC(N)=O)NC(=O)[C@@H](NC(=O)COCCOCCOCCNC(=O)CCCC[C@H]2SC[C@H]3NC(=O)N[C@H]32)Cc2cn(nn2)CCCC[C@@H](C(N)=O)NC(=O)[C@@H](Cc2ccc(F)cc2)NC(=O)[C@@H](Cc2cn(C)c3ccccc23)NC(=O)[C@@H](Cc2ccccc2)NC1=O [nlf(Me-Trp)(F-Phe), biotin-PEG3-Cy(nlf(Me-Trp)(F-Phe))] ({Biotinyl(3aR,4R,6aS)-AEEEA}-[Pra][dN][dL][dF][dTrp(1-Me)][dPhe(4-F)][Lys(N3)]-NH2; triazole 1-7)	His-tagged IDO1 human recombinant protein (Homo sapiens, UniProt P14902)	pEC50	7.70

Each of the following entries comes with a recorded value; kindly state pEC50 for each.
1. Cn1cc(C[C@H]2NC(=O)[C@@H](Cc3ccccc3)NC(=O)[C@@H](CCCNC(=N)N)NC(=O)[C@@H](Cc3ccccc3)NC(=O)[C@@H](NC(=O)COCCOCCOCCNC(=O)CCCC[C@H]3SC[C@H]4NC(=O)N[C@H]43)Cc3cn(nn3)CCCC[C@@H](C(N)=O)NC(=O)[C@@H](CO)NC2=O)c2ccccc21 [frf(Me-Trp)s, biotin-PEG3-Cy(frf(Me-Trp)s)] ({Biotinyl(3aR,4R,6aS)-AEEEA}-[Pra][dF][dR][dF][dTrp(1-Me)][dS][Lys(N3)]-NH2; triazole 1-7)
2. Cn1cc(C[C@H]2NC(=O)[C@@H](CCCNC(=N)N)NC(=O)[C@@H](Cc3ccccc3)NC(=O)[C@@H](CO)NC(=O)[C@@H](CC(N)=O)NC(=O)[C@@H](NC(=O)COCCOCCOCCNC(=O)CCCC[C@@H]3SCC4NC(=O)NC43)Cc3cn(nn3)CCCC[C@@H](C(N)=O)NC2=O)c2ccccc21 (stereo partly drawn) [nsfr(Me-Trp), biotin-PEG3-Cy(nsfr(Me-Trp))] ({X4-AEEEA}-[Pra][dN][dS][dF][dR][dTrp(1-Me)][Lys(N3)]-NH2; triazole 1-7)
3. NC(=O)[C@@H]1CCCCn2cc(nn2)C[C@H](NC(=O)COCCOCCOCCNC(=O)CCCC[C@H]2SC[C@H]3NC(=O)N[C@H]32)C(=O)N[C@H](CO)C(=O)N2CCC[C@@H]2C(=O)N[C@H](Cc2c[nH]c3ccccc23)C(=O)N[C@H](Cc2c[nH]c3ccccc23)C(=O)N[C@H](Cc2ccc(F)cc2)C(=O)N1 [spww(F-Phe), biotin-PEG3-Cy(spww(F-Phe))] ({Biotinyl(3aR,4R,6aS)-AEEEA}-[Pra][dS][dP][dW][dW][dPhe(4-F)][Lys(N3)]-NH2; triazole 1-7)
4. C[C@H]1NC(=O)[C@@H](CCCNC(=N)N)NC(=O)[C@@H](Cc2ccc(O)cc2)NC(=O)[C@@H](Cc2c[nH]c3ccccc23)NC(=O)[C@@H](NC(=O)COCCOCCOCCNC(=O)CCCC[C@H]2SC[C@H]3NC(=O)N[C@H]32)CC2=CC(CCCC[C@@H](C(N)=O)NC(=O)[C@@H](Cc3ccc(O)cc3)NC1=O)N=N2 (stereo partly drawn)
5. N=C(N)NCCC[C@H]1NC(=O)[C@H](Cc2ccc(F)cc2)NC(=O)[C@@H](Cc2c[nH]cn2)NC(=O)[C@@H](CO)NC(=O)[C@@H](CC(N)=O)NC(=O)[C@@H](NC(=O)COCCOCCOCCNC(=O)CCCC[C@H]2SC[C@H]3NC(=O)N[C@H]32)Cc2cn(nn2)CCCC[C@@H](C(N)=O)NC1=O [nsh(F-Phe)r, biotin-PEG3-Cy(nsh(F-Phe)r)] ({Biotinyl(3aR,4R,6aS)-AEEEA}-[Pra][dN][dS][dH][Phe(4-F)][dR][Lys(N3)]-NH2; triazole 1-7)

Response:
[7.70, 6.91, 7.19, 7.60, 7.17]

The measurements presented in this section are drawn from patent US12216122B2.
